test: CCTE_Mundy_HCI_Cortical_NOG_BPCount: CCTE's Neurite Outgrowth Assay in rat cortical cells for Branch Point Count, Mundy Lab (AID 2284237)
Calls of active or inactive are those of the source. How the source made its calls: active means hit-call score of the fitted dose curve at least 0.9, where 1 is the maximum; inactive means score below 0.9.
The reply should name one outcome from active, inactive

Study these solved cases before continuing.
compound=CNC(=O)CSP(=O)(OC)OC group_label=inactive
compound=CC1(C)[C@H](C(=O)O[C@H](C#N)c2cccc(Oc3ccccc3)c2)[C@@H]1/C=C(\Cl)C(F)(F)F group_label=active
compound="OC(Cc1ccccc1Cl)(Cn1[nH]cnc1=S)C1(Cl)CC1 (stereo not given)" group_label=active
compound=CS(=O)(=O)c1ccc(C(=O)C2C(=O)CCCC2=O)c(Cl)c1COCC(F)(F)F group_label=inactive

Ask | // param item: CCOCn1c(-c2ccc(Cl)cc2)c(C#N)c(Br)c1C(F)(F)F ; yields the recorded call
Reply | active

###

test: ATG_CMV_CIS: Attagene CIS-FACTORIAL HepG2 Assay for human CMV (Internal Marker) (AID 2282928); conditions: HepG2 CMV promoter reporter, transcription factor profiling; actives raise or lower the signal;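 further: endpoint acts as a background internal control marker rather than a target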
Activity calls are given as the source filed them. Rule for the calls: active = hit-call score of the fitted dose curve at least 0.9, where 1 is the maximum; inactive = score below 0.9.
The reply should name one outcome from TRUE (active), FALSE (inactive)

Study these solved cases before continuing.
molecule=[Cl][Sn]([c]1ccccc1)([c]1ccccc1)[c]1ccccc1 group_label=FALSE
molecule=O=S1(=O)OC(c2cc(Br)c(O)c(Br)c2)(c2cc(Br)c(O)c(Br)c2)c2ccccc21 group_label=FALSE
molecule=CCN(CC)C(=O)C(Cl)=C(C)OP(=O)(OC)OC group_label=FALSE
molecule="C=CC(F)(C(F)(F)F)C(F)(F)C(F)(F)F (stereo unspecified)" group_label=FALSE
molecule=c1cc[c]([Sb]([c]2ccccc2)[c]2ccccc2)cc1 group_label=TRUE

Ask | // param item: O=C(O)COc1cc(Cl)c(Cl)cc1Cl ; yields the recorded call
Reply | FALSE

Ask | // param item: Brc1ccc(Br)cc1 ; yields the recorded call
Reply | FALSE

Ask | // param item: Cc1ccc(CCl)cc1 ; yields the recorded call
Reply | FALSE

Ask | // param item: CC(c1ccc(O)cc1)c1ccc(O)cc1 ; yields the recorded call
Reply | FALSE

Ask | // param item: CCCCCCCCCCCCCCC(Br)C(=O)O (stereo unspecified) ; yields the recorded call
Reply | FALSE

Ask | // param item: N#CS ; yields the recorded call
Reply | FALSE

Ask | // param item: C[N+](C)(C)Cc1ccccc1 ; yields the recorded call
Reply | FALSE

###

experiment: ATG_BRE_CIS: Attagene CIS-FACTORIAL HepG2 Assay for human Bone Morphogenetic Protein (BMP) Response Element (BRE) (AID 2282933); conditions: HepG2 BMP response element reporter, Attagene transcription factor profiling; actives raise or lower the signal
Active and inactive are the calls of the source. Rule for the calls: active = hit-call score of the fitted dose curve at least 0.9, where 1 is the maximum; inactive = score below 0.9.
The reply should name one outcome from 1 (yes) = active, 0 (no) = inactive

compound=CCC[CH2][Sn]([CH2]CCC)([CH2]CCC)[CH2]CCC group_label="1 (yes)"
compound=C=C(C)C(=O)OCCCCOC(=O)C(=C)C group_label="0 (no)"
compound=c1ccc2sc(SNC3CCCCC3)nc2c1 group_label="0 (no)"
compound=CCC[CH2][Sn]([Cl])([Cl])[CH2]CCC group_label="1 (yes)"
compound=CC1(C)COP(Oc2ccccc2)OC1 group_label="0 (no)"

Ask | // param item: N#CCCC(Br)(C#N)CBr (stereo not given) ; yields the recorded call
Reply | 0 (no)

Ask | // param item: CC(=Cc1ccccc1)[N+](=O)[O-] ; yields the recorded call
Reply | 0 (no)

Ask | // param item: N#CCC#N ; yields the recorded call
Reply | 0 (no)

Ask | // param item: Cc1ccc(OP(=O)(Oc2ccc(C)cc2C)Oc2ccc(C)cc2C)c(C)c1 ; yields the recorded call
Reply | 0 (no)

Ask | // param item: CCCCCCCCCCCCOS(=O)(=O)O ; yields the recorded call
Reply | 0 (no)

Ask | // param item: CCC(C)(C#N)N=NC(C)(C#N)CC (stereo not given) ; yields the recorded call
Reply | 0 (no)

Ask | // param item: O=C(O)c1cc(I)cc(I)c1I ; yields the recorded call
Reply | 0 (no)

Ask | // param item: CCCCCCCCCCCCBr ; yields the recorded call
Reply | 0 (no)

Ask | // param item: O=C(NC(=O)c1c(F)cccc1F)Nc1cc(Cl)c(Oc2ncc(C(F)(F)F)cc2Cl)c(Cl)c1 ; yields the recorded call
Reply | 0 (no)

Ask | // param item: CCN(CC)C(=O)C(Cl)=C(C)OP(=O)(OC)OC ; yields the recorded call
Reply | 0 (no)

Ask | // param item: Cc1cc(Cl)ccc1N ; yields the recorded call
Reply | 0 (no)

Ask | // param item: CC(c1ccc(O)cc1)c1ccc(O)cc1 ; yields the recorded call
Reply | 0 (no)

Ask | // param item: Fc1cccc(Cl)c1CCl ; yields the recorded call
Reply | 0 (no)

Ask | // param item: CC[N+](CC)(CC)CC ; yields the recorded call
Reply | 0 (no)

Ask | // param item: CC(C)(C#N)N=NC(C)(C)C#N ; yields the recorded call
Reply | 0 (no)

Ask | // param item: CC(C)CP(=S)(S)CC(C)C ; yields the recorded call
Reply | 0 (no)

Ask | // param item: O=S1(=O)OC(c2cc(Br)c(O)c(Br)c2)(c2cc(Br)c(O)c(Br)c2)c2ccccc21 ; yields the recorded call
Reply | 0 (no)

Ask | // param item: BrCCCCBr ; yields the recorded call
Reply | 0 (no)

Ask | // param item: C=CC(F)(C(F)(F)F)C(F)(F)C(F)(F)F (stereo not given) ; yields the recorded call
Reply | 0 (no)

Ask | // param item: Cc1cc(C)cc(C)c1 ; yields the recorded call
Reply | 0 (no)

###

read-out: CD40, CD40 (gene 958); assay: BSK_SAg_CD40: BioMAP Diversity Plus: SAg Assay for CD40 Biomarker Activity (AID 2283088); settings: primary human HUVEC with PBMC; actives raise or lower the signal
Active and inactive are the calls of the source. How the source made its calls: active means hit-call score of the fitted dose curve at least 0.9, where 1 is the maximum; inactive means score below 0.9.
The reply should name one outcome from active, inactive

molecule=O=S(=O)(C(Cl)(Cl)Cl)C(Cl)(Cl)Cl group_label=active

Ask | // param item: CC(C)O.CC(C)O.OCCN(CCO)CCO.OCCN(CCO)CCO.[Ti] ; yields the recorded call
Reply | inactive

Ask | // param item: OCCCCO ; yields the recorded call
Reply | inactive

Ask | // param item: Cc1c([N+](=O)[O-])c(C)c([N+](=O)[O-])c(C(C)(C)C)c1[N+](=O)[O-] ; yields the recorded call
Reply | inactive

Ask | // param item: Oc1cc(Cl)c(Cl)cc1Cl ; yields the recorded call
Reply | active

Ask | // param item: CCOC(=O)CCN(SN(C)C(=O)Oc1cccc2c1OC(C)(C)C2)C(C)C ; yields the recorded call
Reply | active

Ask | // param item: O=C1C=CC(=O)c2ccccc21 ; yields the recorded call
Reply | active

###

experiment: ATG_TGFb_CIS: Attagene CIS-FACTORIAL HepG2 Assay for human Transforming Growth Factor (TGF) (AID 2282967); details: HepG2 Attagene CIS TGFb reporter, mRNA transcription; actives raise or lower the signal
Active and inactive are the calls of the source. The calls were made as follows: active = hit-call score of the fitted dose curve at least 0.9, where 1 is the maximum; inactive = score below 0.9.
The reply should name one outcome from yes (active), no (inactive)

Study these solved cases before continuing.
compound="C=CC(Cl)CCl (stereo not drawn)" group_label=no
compound=OC(c1ccc(Cl)cc1)(c1ccc(Cl)cc1)c1cccnc1 group_label=no

Ask | // param item: O=S(=O)(c1ccc(Cl)cc1)c1cc(Cl)c(Cl)cc1Cl ; yields the recorded call
Reply | no

Ask | // param item: Cc1cccc(OP(=O)(Oc2cccc(C)c2)Oc2cccc(C)c2)c1 ; yields the recorded call
Reply | no

Ask | // param item: CCCCOC(C)=O ; yields the recorded call
Reply | no

Ask | // param item: Oc1cc(Cl)c(Cl)cc1Cl ; yields the recorded call
Reply | no

Ask | // param item: Cc1cccc(C)c1NC(=O)CN1CCCC1=O ; yields the recorded call
Reply | no

Ask | // param item: C[CH2][Hg][S]c1ccccc1C(=O)O ; yields the recorded call
Reply | no

Ask | // param item: CC1(C)COP(Oc2ccccc2)OC1 ; yields the recorded call
Reply | no

Ask | // param item: [Cl][Sn]([c]1ccccc1)([c]1ccccc1)[c]1ccccc1 ; yields the recorded call
Reply | no

Ask | // param item: Cc1ccccc1OP(=O)(Oc1ccccc1)Oc1ccccc1 ; yields the recorded call
Reply | no

Ask | // param item: C=C(C)C(=O)OCCCCOC(=O)C(=C)C ; yields the recorded call
Reply | no

Ask | // param item: O=S(=O)(Oc1ccc(Cl)cc1)c1ccc(Cl)cc1 ; yields the recorded call
Reply | yes
